- Tested system: human CB2 receptor (Homo sapiens)
- Sequence (P34972 whole entry): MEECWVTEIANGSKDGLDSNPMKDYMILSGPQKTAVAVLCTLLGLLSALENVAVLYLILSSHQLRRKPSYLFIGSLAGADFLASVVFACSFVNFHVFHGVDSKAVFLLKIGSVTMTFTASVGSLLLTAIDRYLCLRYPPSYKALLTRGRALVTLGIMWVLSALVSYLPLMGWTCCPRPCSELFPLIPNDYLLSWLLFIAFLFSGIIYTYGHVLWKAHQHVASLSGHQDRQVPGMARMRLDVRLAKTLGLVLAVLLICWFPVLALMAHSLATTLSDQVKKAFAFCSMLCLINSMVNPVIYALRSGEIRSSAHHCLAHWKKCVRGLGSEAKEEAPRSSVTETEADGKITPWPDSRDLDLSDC
- Experimental details: CB2 beta-arrestin receptor activation (PathHunter chemiluminescence)
- Assay type: cell-based
- Run parameters: HEK cells overexpressing human CB2, beta-arrestin system, 1 h, 37° C., 1 pM to 100 nM; read-out: EC50 for activation of CB2
Property label: pEC50
Numbers only, as −log10 of the molar value.

>>> df
                                   compound  numeric_result
0  CC/C=C\C[C@H](O)/C=C/C=C\C=C\[C@H](O)C/C=C\C/C=C\CCC(=O)NCCO (single isomer, unassigned)            9.41

Now look at this entry.
Q: Tell me measured pEC50 for CC/C=C\CC1OC1C(O)/C=C\C/C=C\C/C=C\C/C=C\CCC(=O)NCCO (centres unmarked) please.
Result: 10.00
